# Test target: JAK1 (Homo sapiens (Human))
# Sequence (P23458 whole entry): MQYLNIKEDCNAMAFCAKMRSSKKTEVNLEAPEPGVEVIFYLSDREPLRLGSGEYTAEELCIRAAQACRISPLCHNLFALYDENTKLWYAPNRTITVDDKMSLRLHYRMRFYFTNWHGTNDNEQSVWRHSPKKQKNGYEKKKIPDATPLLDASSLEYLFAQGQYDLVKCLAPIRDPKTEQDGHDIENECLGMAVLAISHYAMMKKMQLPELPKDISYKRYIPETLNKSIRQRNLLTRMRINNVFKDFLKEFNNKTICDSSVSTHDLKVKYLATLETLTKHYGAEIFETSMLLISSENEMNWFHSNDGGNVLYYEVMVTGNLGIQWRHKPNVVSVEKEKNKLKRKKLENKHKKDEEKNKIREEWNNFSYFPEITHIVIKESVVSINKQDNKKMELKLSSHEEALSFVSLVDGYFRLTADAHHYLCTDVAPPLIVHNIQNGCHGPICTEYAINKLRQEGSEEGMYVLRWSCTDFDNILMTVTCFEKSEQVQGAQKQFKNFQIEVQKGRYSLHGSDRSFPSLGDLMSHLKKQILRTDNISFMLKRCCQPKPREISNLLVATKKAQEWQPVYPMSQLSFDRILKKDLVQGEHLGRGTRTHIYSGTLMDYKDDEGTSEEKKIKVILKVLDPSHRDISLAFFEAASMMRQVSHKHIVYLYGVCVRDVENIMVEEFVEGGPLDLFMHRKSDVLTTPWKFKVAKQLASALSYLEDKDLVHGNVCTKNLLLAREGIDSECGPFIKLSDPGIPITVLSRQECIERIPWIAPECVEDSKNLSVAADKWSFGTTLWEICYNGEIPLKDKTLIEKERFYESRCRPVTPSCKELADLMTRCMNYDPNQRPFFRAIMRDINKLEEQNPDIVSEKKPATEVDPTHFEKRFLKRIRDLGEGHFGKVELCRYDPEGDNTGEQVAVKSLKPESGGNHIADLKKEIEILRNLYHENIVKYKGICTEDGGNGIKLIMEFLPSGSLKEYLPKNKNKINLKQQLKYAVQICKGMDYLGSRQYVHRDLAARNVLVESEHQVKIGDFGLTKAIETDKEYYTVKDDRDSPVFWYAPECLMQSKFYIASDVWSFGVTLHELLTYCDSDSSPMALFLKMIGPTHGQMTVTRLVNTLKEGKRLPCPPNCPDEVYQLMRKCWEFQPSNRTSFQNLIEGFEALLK
# Protocol details: JAK1 Inhibition Assay (Example B, Omnia kinase fluorescence peptide substrate assay)
# Type: biochemical
pIC50: −log10 of the molar value. Structures can show the parent of a compound that is named as a salt.
So I've got a bunch of molecules here, and I need their pIC50 values.

pIC50 for JAK1 (Homo sapiens (Human)) with input CCC(CC)n1cc(-c2nc(-c3cnn(C[C@H]4CCCN4)c3)cn3nccc23)cn1 [Example 27] equals 5.00 to 6.00

pIC50 for JAK1 (Homo sapiens (Human)) with input CCC(CC)n1cc(-c2nc(-c3cnn(CC(O)C(C)(C)C)c3)cn3nccc23)cn1 (stereo not drawn) [Example 112] equals 5.00 to 6.00

pIC50 for JAK1 (Homo sapiens (Human)) with input CCC(CC)n1cc(-c2nc(-c3cnn(CC(C)(O)CO)c3)cn3nccc23)cn1 (stereo not drawn) [Example 60] equals 5.00 to 6.00

pIC50 for JAK1 (Homo sapiens (Human)) with input CCC(CC)n1cc(-c2nc(-c3cnn(CCS(C)(=O)=O)c3)cn3nccc23)cn1 [Example 22] equals 6.00 to 7.00

pIC50 for JAK1 (Homo sapiens (Human)) with input CCC[C@H](C)n1cc(-c2nc(-c3cnn(C(CO)CO)c3)cn3nccc23)cn1 [Example 82] equals 6.00 to 7.00

pIC50 for JAK1 (Homo sapiens (Human)) with input CCC(CC(F)(F)F)n1cc(-c2nc(-c3cnn(C(CO)CO)c3)cn3nccc23)cn1 (single isomer, unassigned) [Example 212] equals 5.00 to 6.00

pIC50 for JAK1 (Homo sapiens (Human)) with input CC(C)n1cc(-c2nc(-c3cnn(C4CCNCC4)c3)cn3nccc23)cn1 [Example 26] equals 5.00 to 6.00

pIC50 for JAK1 (Homo sapiens (Human)) with input CCC(CC)n1cc(-c2nc(-c3cnn(CC(O)C(C)C)c3)cn3nccc23)cn1 (stereo not drawn) [Example 113] equals 5.00 to 6.00

pIC50 for JAK1 (Homo sapiens (Human)) with input CC[C@H](C)n1cc(-c2nc(-c3cnn(C[C@H](O)CO)c3)cn3nccc23)cn1 [Example 70, hydrochloride] equals 6.00 to 7.00

pIC50 for JAK1 (Homo sapiens (Human)) with input CCC(CC)n1cc(-c2nc(-c3cnn(CC4CCOCC4)c3)cn3nccc23)cn1 [Example 4] equals 6.00 to 7.00

pIC50 for JAK1 (Homo sapiens (Human)) with input CCC(CC)n1cc(-c2nc(-c3cnn([C@H]4COC[C@@H]4O)c3)cn3nccc23)cn1 (single isomer, unassigned) [Example 160] equals 5.00 to 6.00

pIC50 for JAK1 (Homo sapiens (Human)) with input CCC(CC)n1cc(-c2nc(-c3cnn(C4CCN(C(C)=O)CC4)c3)cn3nccc23)cn1 [Example 31] equals 6.00 to 7.00

pIC50 for JAK1 (Homo sapiens (Human)) with input CC[C@H](C)n1cc(-c2nc(-c3cnn(C(CO)CO)c3)cn3nccc23)cn1 [Example 84] equals 7.00 to 8.00

pIC50 for JAK1 (Homo sapiens (Human)) with input CCC(CC)n1cc(-c2nc(-c3cnn(C4CN(C(=O)CNC)C4)c3)cn3nccc23)cn1 [Example 187, bis(2,2,2-trifluoroacetate)] equals 6.00 to 7.00

pIC50 for JAK1 (Homo sapiens (Human)) with input Cn1cc(-c2cn3nccc3c(-c3cnn(C4CCCC4O)c3)n2)cn1 (stereo not drawn) [Example 53] equals 5.00 to 6.00

pIC50 for JAK1 (Homo sapiens (Human)) with input CCC(CC)n1cc(-c2nc(-c3cnn(CCN4CC[C@@H](OC)C4)c3)cn3nccc23)cn1 [Example 136] equals 6.00 to 7.00

pIC50 for JAK1 (Homo sapiens (Human)) with input CCC(CC)n1cc(-c2nc(-c3cnn(C[C@H](N)C(C)(C)O)c3)cn3nccc23)cn1 [Example 183] equals 5.00 to 6.00

pIC50 for JAK1 (Homo sapiens (Human)) with input CCC(CC)n1cc(-c2nc(-c3cnn(CCN4CCNC(=O)C4)c3)cn3nccc23)cn1 [Example 144] equals 6.00 to 7.00

pIC50 for JAK1 (Homo sapiens (Human)) with input CC1CCCCCC1n1cc(-c2nc(-c3cnn(C)c3)cn3nccc23)cn1 (stereo not drawn) [Example 52] equals 6.00 to 7.00

pIC50 for JAK1 (Homo sapiens (Human)) with input CCC(CC)n1cc(-c2nc(-c3cnn(CCN4CCOCC4)c3)cn3nccc23)cn1 [Example 3] equals 5.00 to 6.00

pIC50 for JAK1 (Homo sapiens (Human)) with input CCC(CC)n1cc(-c2nc(-c3cnn(CC(=O)N(C)C)c3)cn3nccc23)cn1 [Example 5] equals 6.00 to 7.00

pIC50 for JAK1 (Homo sapiens (Human)) with input CCC[C@@H](C)n1cc(-c2nc(-c3cnn(C(CO)CO)c3)cn3nccc23)cn1 [Example 83] equals 5.00 to 6.00

pIC50 for JAK1 (Homo sapiens (Human)) with input CCC(CC)n1cc(-c2nc(-c3cnn(CCN4CCNCC4=O)c3)cn3nccc23)cn1 [Example 147] equals 5.00 to 6.00

pIC50 for JAK1 (Homo sapiens (Human)) with input CCC(CC)n1cc(-c2nc(-c3cnn(CCN4CC[C@H](O)C4)c3)cn3nccc23)cn1 [Example 141] equals 5.00 to 6.00
